Entry source: paper PMC9482650

measurementTarget: PTPN3, P26045
Sequence (P26045 505-587): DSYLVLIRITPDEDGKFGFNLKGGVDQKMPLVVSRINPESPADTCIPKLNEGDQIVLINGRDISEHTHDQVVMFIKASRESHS
assayInfo: holdup assay
Design: key: below the threshold = too weak to quantify, mostly under pKd 3.1 to 4
measurementSetup: plain residues with an end cap or a label only (N-terminal biotin on a linker: ado-ado)
readout: pKd
Just the number, please, no unit after it.

Task item: For the binder SSALYGESDL [ACTN2, P35609] , what pKd is on record?
Reply: 4.45

Task item: Entry ETQVTAETVI [TMEM225B, P0DP42] has what pKd?
Reply: 4.59

Task item: Name the reported pKd value associated with the binder RKPKPSSSCC [RAB9A, P51151]
Reply: 3.83

Task item: What value of pKd has been recorded for this entry: YYKRPVQEWV [MMP24, Q9Y5R2]
Reply: 3.88

Task item: Return reported pKd; argument: SGSLKLMTTV [DACT1, Q9NYF0]
Reply: 3.8

Task item: Fill in the blank: the reported pKd of GQEEQVTTRL [TRPC5, Q9UL62] is ____.
Reply: 4.54

Task item: Tell me the measured pKd of CLREWCDAFL [BANF1, O75531] , please.
Reply: 4.47

Task item: Find the recorded pKd belonging to LSEFKAMDSI [CTNNA1, P35221] and report it.
Reply: 3.97

Task item: Recorded pKd of LPAHHNATRL [SLC34A1, Q06495;Q06495-1] , please.
Reply: 4

Task item: // lookup pKd for PKRSFIESNV [TANC1, Q9C0D5]
Reply: 4.57

Task item: Reported pKd for LGRSTPQSEV [DGKH, Q86XP1] : what is it?
Reply: 4.12

Task item: Which measured pKd value corresponds to LPHGHSTTRV [NLGN4X, Q8N0W4] ?
Reply: 4.36

Task item: # pKd lookup, item TASPAKETSF [SLC2A7, Q6PXP3]
Reply: 5.22

Task item: Fill in the blank: the reported pKd of SAAKVLTSMC [GHRHR, Q02643] is ____.
Reply: 3.71

Task item: # get_value(readout='pKd', item= QSARLWETSI [ADAM22, Q9P0K1] )
Reply: 4.83

Task item: Need pKd of KKAPTNEFYA [SDC4, P31431] , thanks.
Reply: 4.02

Task item: Could you tell me which pKd is on file for DTTVPESEDL [MYOZ2, Q9NPC6] ?
Reply: 4.25

Task item: Which pKd reading was recorded for the binder VKPQVSESKL [ACOT8, O14734] ?
Reply: 4.63

Task item: Given the entry PPYRHRNTVV [ERBB4, Q15303] , report its measured pKd.
Reply: 3.89

Task item: Looking for the measured pKd of QMNQTLPVQV [EPHB3, P54753] , can you help?
Reply: 3.97

Task item: I would be grateful if you could share the reported pKd for KKMPSIESDV [GRIN2A, Q12879] .
Reply: 4.44

Task item: Please report the recorded pKd for IPLDGETEEL [MYOZ1, Q9NP98] .
Reply: 4.04

Task item: Consider the binder shown here: SKENVQETQI [LRRC4B, Q9NT99] What is its recorded pKd?
Reply: 4.8

Task item: Quick one: pKd for DDPSTAETVL [ABCA7, Q8IZY2] ?
Reply: 4.83
